Data origin: PubChem BioAssay (EPA / NIEHS)

# Read-out: C-C motif chemokine 2 (Homo sapiens)
# METHOD DESCRIPTION: BSK_KF3CT_MCP1: BioMAP Diversity Plus: KF3CT Assay for Monocyte Chemoattractant Protein 1 (MCP1/CCL2) Biomarker Activity (AID 2283073)
# CONDITION INFO: primary human keratinocytes with fibroblasts; actives raise or lower the signal
The source made the active and inactive calls. Rule for the calls: active = hit-call score of the fitted dose curve at least 0.9, where 1 is the maximum; inactive = score below 0.9.
PARAMETER: AC50

Below, each entry is followed by its recorded AC50 result.
molecule="ClC1C(Cl)C(Cl)C(Cl)C(Cl)C1Cl (stereo not given)" parameter=AC50 data_value=inactive
molecule=O=C(O)CCCOc1ccc(Cl)cc1Cl parameter=AC50 data_value=inactive
molecule="CC(C)(C)C(O)C(Oc1ccc(Cl)cc1)n1cncn1 (stereo not given)" parameter=AC50 data_value=inactive
molecule=COP(=O)(OC)OC=C(Cl)Cl parameter=AC50 data_value=inactive
molecule=C[C@H]1[C@H](c2ccc(Cl)cc2)SC(=O)N1C(=O)NC1CCCCC1 parameter=AC50 data_value=inactive
molecule=COP(=S)(OC)Oc1ccc(SC)c(C)c1 parameter=AC50 data_value=inactive

[in] // lookup AC50 for "O=C(O)C(F)(F)C(F)(F)C(F)(F)C(F)(F)C(F)(F)C(F)(F)C(F)(F)F"
[out] inactive

[in] // lookup AC50 for CC1(C)C(C=C(Cl)Cl)C1C(=O)OC(C#N)c1ccc(F)c(Oc2ccccc2)c1 (stereo not given)
[out] inactive

[in] // lookup AC50 for "C#CCN1C(=O)COc2cc(F)c(N3C(=O)C4=C(CCCC4)C3=O)cc21"
[out] inactive

[in] // lookup AC50 for "CCc1ccc(C(=O)NN(C(=O)c2cc(C)cc(C)c2)C(C)(C)C)cc1"
[out] inactive

---

# METHOD DESCRIPTION: UKN4_HCS_LUHMES_neurite_outgrowth: University of Konstanz (UKN) Leist Lab Neurite Outgrowth Assay in human LUHMES cells (UKN4) (AID 2284206)
# CONDITION INFO: actives raise or lower the signal
# Experimental: UKN4_HCS_LUHMES is a cell-based, multiplexed-readout assay screening for neurite outgrowth and cell viability that uses LUHMES, a human central nervous system cell line, with measurements taken at […] after chemical dosing in a microplate: 96-well plate. […] Following a 2-day differentiation period, cells are exposed to chemicals for 24 hr and neurite area is evaluated as a marker of neurite outgrowth using high-content imaging of cells stained with calcein AM. […]
The source made the active and inactive calls. How the source made its calls: active means hit-call score of the fitted dose curve at least 0.9, where 1 is the maximum; inactive means score below 0.9.
Return exactly one item of y = active, n = inactive

compound=O=[N+]([O-])/N=C1\NCCN1Cc1ccc(Cl)nc1 class=n
compound="O=S1OCC2C(CO1)C1(Cl)C(Cl)=C(Cl)C2(Cl)C1(Cl)Cl (stereo unspecified)" class=y
compound=O=C(O)C(F)(F)C(F)(F)C(F)(F)C(F)(F)C(F)(F)C(F)(F)C(F)(F)F class=y
compound=CCC(C)(C)C(=O)OC1=C(c2ccc(Cl)cc2Cl)C(=O)OC12CCCCC2 class=n
compound="ClC1C(Cl)C(Cl)C(Cl)C(Cl)C1Cl (stereo unspecified)" class=n

# evaluate next
[in] Just curious, what result did "CC(C)N(C(=O)COc1nnc(C(F)(F)F)s1)c1ccc(F)cc1" get here?
[out] n

---

# METHOD DESCRIPTION: BSK_BE3C_SRB: Viability Assessment in the BioMAP Diversity Plus: BE3C Assay (AID 2283028);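 note: measured 24 h after chemical dosing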
# CONDITION INFO: primary human bronchial epithelial cells
Activity calls are given as the source filed them. How the source made its calls: active means hit-call score of the fitted dose curve at least 0.9, where 1 is the maximum; inactive means score below 0.9.
Return exactly one item of active, inactive

Take a look at these entries with their results.
molecule=COc1cc(OC)nc(NC(=O)NS(=O)(=O)c2cc(NC=O)ccc2C(=O)N(C)C)n1 class=inactive
molecule=C[C@H]1[C@H](c2ccc(Cl)cc2)SC(=O)N1C(=O)NC1CCCCC1 class=active
molecule="CC1(c2ccc(Oc3ccccc3)cc2)OC(=O)N(Nc2ccccc2)C1=O (configuration not stated)" class=active
molecule=CN1CSC(=S)N(C)C1 class=inactive
molecule=O=C(O)C(F)(F)C(F)(F)C(F)(F)C(F)(F)C(F)(F)C(F)(F)C(F)(F)F class=inactive

[in] Just curious, what result did "COC(=O)c1ccccc1CS(=O)(=O)NC(=O)Nc1nc(OC)cc(OC)n1" get here?
[out] inactive

[in] Just curious, what result did "CNC(=O)Oc1ccccc1OC(C)C" get here?
[out] inactive

[in] Just curious, what result did "Oc1cc(Cl)ccc1Oc1ccc(Cl)cc1Cl" get here?
[out] active

[in] Just curious, what result did "Clc1ccccc1-c1nnc(-c2ccccc2Cl)nn1" get here?
[out] inactive

[in] Just curious, what result did "OCCOc1ccccc1" get here?
[out] inactive

[in] Just curious, what result did "O=C(Nc1ccccc1)Nc1cnns1" get here?
[out] inactive

[in] Just curious, what result did "CC(C)N(C(=O)COc1nnc(C(F)(F)F)s1)c1ccc(F)cc1" get here?
[out] inactive

---

# EXPERIMENTAL TARGET: Cellular tumor antigen p53 (Homo sapiens)
# METHOD DESCRIPTION: TOX21_p53_BLA_p4_ratio: Tox21 HCT-116 p53 Agonism Beta-lactamase Assay, Ratio, Phase 4 (AID 2283601)
Inconclusive results are not listed. Activity calls are given as the source filed them. How the source made its calls: active means hit-call score of the fitted dose curve at least 0.9, where 1 is the maximum; inconclusive means response in the unintended direction; inactive means score below 0.9.
Return exactly one item of active, inactive

compound=COC(=O)c1ccccc1S(=O)(=O)NC(=O)Nc1nc(C)nc(OC)n1 class=inactive
compound="CC[C@H](C)[C@H]1O[C@]2(C=C[C@@H]1C)C[C@@H]1C[C@@H](C/C=C(\\C)[C@@H](O[C@H]3C[C@H](OC)[C@@H](O[C@H]4C[C@H](OC)[C@@H](O)[C@H](C)O4)[C@H](C)O3)[C@@H](C)/C=C/C=C3\\CO[C@@H]4[C@H](O)C(C)=C[C@@H](C(=O)O1)[C@]34O)O2 (tested in a mixture with another compound)" class=inactive
compound="ClC1C(Cl)C(Cl)C(Cl)C(Cl)C1Cl (configuration not stated)" class=inactive

# evaluate next
[in] Just curious, what result did "COP(=S)(OC)Oc1ccc([N+](=O)[O-])cc1" get here?
[out] inactive

---

# METHOD DESCRIPTION: ATG_Ets_CIS: Attagene CIS-FACTORIAL HepG2 Assay for human Erythroblast Transformation Specific (ETS) (AID 2282941)
# CONDITION INFO: HepG2 ETS cis-reporter transcription, actives raise or lower the signal
Active and inactive are the calls of the source. The calls were made as follows: active = hit-call score of the fitted dose curve at least 0.9, where 1 is the maximum; inactive = score below 0.9.
Return exactly one item of t = active, f = inactive

Take a look at these entries with their results.
compound="CCC(C)Nc1c([N+](=O)[O-])cc(C(C)(C)C)cc1[N+](=O)[O-] (centres undefined)" class=f
compound=CNC(=O)Oc1ccccc1OC(C)C class=f
compound=CC(C)N(C(=O)COc1nnc(C(F)(F)F)s1)c1ccc(F)cc1 class=t
compound=COP(=S)(OC)Oc1ccc(SC)c(C)c1 class=f
compound=O=C(O)C(F)(F)C(F)(F)C(F)(F)C(F)(F)C(F)(F)C(F)(F)C(F)(F)F class=f
compound=O=C(O)CCCOc1ccc(Cl)cc1Cl class=f
compound=CNC(=O)/C=C(\C)OP(=O)(OC)OC class=f
compound=COC(=O)c1ccccc1S(=O)(=O)NC(=O)Nc1nc(C)nc(OC)n1 class=f
compound=Clc1ccccc1-c1nnc(-c2ccccc2Cl)nn1 class=f
compound=C[C@H]1[C@H](c2ccc(Cl)cc2)SC(=O)N1C(=O)NC1CCCCC1 class=f

[in] Just curious, what result did CCOC1Oc2ccc(OS(C)(=O)=O)cc2C1(C)C (centres undefined) get here?
[out] f

[in] Just curious, what result did "O=C(O)COc1ccc(Cl)cc1Cl" get here?
[out] f

[in] Just curious, what result did "COC(=O)c1ccccc1CS(=O)(=O)NC(=O)Nc1nc(OC)cc(OC)n1" get here?
[out] f

[in] Just curious, what result did "O=[N+]([O-])/N=C1\NCCN1Cc1ccc(Cl)nc1" get here?
[out] f

[in] Just curious, what result did "N#Cc1c(Cl)c(Cl)c(Cl)c(C#N)c1Cl" get here?
[out] f

[in] Just curious, what result did "CC(C)OC(=O)Nc1cccc(Cl)c1" get here?
[out] f

[in] Just curious, what result did CC(C)(C)C(O)/C(=C\c1ccc(Cl)cc1Cl)n1cncn1 (centres undefined) get here?
[out] f

[in] Just curious, what result did "CN1CSC(=S)N(C)C1" get here?
[out] f

---

# EXPERIMENTAL TARGET: Estrogen receptor (Homo sapiens) + Estrogen receptor beta (Homo sapiens) (UniProt P03372+Q92731)
# Sequence (P03372 whole entry, looked up, the tested form may be a part): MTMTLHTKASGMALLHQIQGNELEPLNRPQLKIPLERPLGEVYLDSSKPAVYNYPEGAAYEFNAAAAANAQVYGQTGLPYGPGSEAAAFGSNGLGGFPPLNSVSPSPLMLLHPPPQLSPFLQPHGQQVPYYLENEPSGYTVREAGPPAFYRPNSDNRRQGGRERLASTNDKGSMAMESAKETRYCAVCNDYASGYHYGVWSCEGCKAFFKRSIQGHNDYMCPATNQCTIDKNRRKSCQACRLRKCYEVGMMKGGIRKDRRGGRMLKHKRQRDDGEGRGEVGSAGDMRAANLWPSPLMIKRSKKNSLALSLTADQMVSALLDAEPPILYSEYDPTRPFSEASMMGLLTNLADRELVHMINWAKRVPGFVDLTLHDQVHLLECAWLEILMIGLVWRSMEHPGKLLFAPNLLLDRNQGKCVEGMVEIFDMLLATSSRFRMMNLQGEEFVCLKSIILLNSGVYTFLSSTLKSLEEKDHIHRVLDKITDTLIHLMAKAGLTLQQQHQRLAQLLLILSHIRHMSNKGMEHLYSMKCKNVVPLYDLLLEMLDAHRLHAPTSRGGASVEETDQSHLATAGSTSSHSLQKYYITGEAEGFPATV
# Sequence (Q92731 whole entry, looked up, the tested form may be a part): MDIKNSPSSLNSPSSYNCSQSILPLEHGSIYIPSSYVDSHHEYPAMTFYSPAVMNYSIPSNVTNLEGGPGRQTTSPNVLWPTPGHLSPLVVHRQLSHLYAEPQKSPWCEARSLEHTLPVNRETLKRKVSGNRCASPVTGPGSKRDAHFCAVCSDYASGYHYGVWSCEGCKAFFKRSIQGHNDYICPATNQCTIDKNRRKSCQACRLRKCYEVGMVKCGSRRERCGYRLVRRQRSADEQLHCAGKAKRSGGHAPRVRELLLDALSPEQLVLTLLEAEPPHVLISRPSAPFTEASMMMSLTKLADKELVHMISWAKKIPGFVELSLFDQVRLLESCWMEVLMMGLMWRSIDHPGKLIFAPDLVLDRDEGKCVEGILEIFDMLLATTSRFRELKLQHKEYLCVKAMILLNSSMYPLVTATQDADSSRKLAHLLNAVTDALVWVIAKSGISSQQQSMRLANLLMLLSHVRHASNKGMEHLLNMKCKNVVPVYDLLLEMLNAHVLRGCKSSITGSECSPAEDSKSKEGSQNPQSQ
# METHOD DESCRIPTION: OT_ER_ERaERb_1440: Odyssey Thera (OT) 24-hour HEK293T Protein-Complementation Assay for Estrogen Receptor-alpha/-beta Homodimer (AID 2283356);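 note: heteromer of ER alpha and ER beta binding domains; hits raise reporter fluorescence and both agonists and antagonists give an increase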
Records with an inconclusive call do not appear. Active and inactive are the calls of the source. The calls were made as follows: active = hit-call score of the fitted dose curve at least 0.9, where 1 is the maximum; inconclusive = response in the unintended direction; inactive = score below 0.9.
PARAMETER: outcome

Below, each entry is followed by its recorded outcome result.
molecule=O=C(Nc1ccccc1)Nc1cnns1 data_value=inactive
molecule=COc1nn(CSP(=S)(OC)OC)c(=O)s1 data_value=inactive
molecule=COP(=O)(OC)OC=C(Cl)Cl data_value=inactive
molecule=C#CCN1C(=O)COc2cc(F)c(N3C(=O)C4=C(CCCC4)C3=O)cc21 data_value=inactive

[in] // lookup outcome for "COP(=S)(OC)Oc1ccc(SC)c(C)c1"
[out] inactive

[in] // lookup outcome for "C[C@H]1[C@H](c2ccc(Cl)cc2)SC(=O)N1C(=O)NC1CCCCC1"
[out] inactive

[in] // lookup outcome for "COP(=S)(OC)Oc1ccc([N+](=O)[O-])cc1"
[out] inactive

[in] // lookup outcome for "CNC(=O)CSP(=S)(OC)OC"
[out] inactive

[in] // lookup outcome for CC1(c2ccc(Oc3ccccc3)cc2)OC(=O)N(Nc2ccccc2)C1=O (centres undefined)
[out] inactive
